Taken from PubChem BioAssay.

# target desc: L-lactate dehydrogenase (Plasmodium falciparum (isolate CDC / Honduras)) (UniProt Q27743)
# Sequence (Q27743 whole entry, looked up): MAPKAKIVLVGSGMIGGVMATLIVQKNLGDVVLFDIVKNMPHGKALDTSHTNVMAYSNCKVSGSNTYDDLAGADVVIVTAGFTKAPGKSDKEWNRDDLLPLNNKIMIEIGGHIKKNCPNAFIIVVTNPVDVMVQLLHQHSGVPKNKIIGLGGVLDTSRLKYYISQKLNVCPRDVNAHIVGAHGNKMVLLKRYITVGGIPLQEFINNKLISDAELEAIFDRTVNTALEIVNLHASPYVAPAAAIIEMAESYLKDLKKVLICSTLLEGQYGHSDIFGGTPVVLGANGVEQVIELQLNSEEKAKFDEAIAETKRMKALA
# protocol: PfLDH activity inhibition – cell lysate, 3D7 strain, counter-screen for P. falciparum growth inhibition project (AID 2304);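 further: 0% = vehicle and 100% = reference inhibitor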
# stated conditions: P. falciparum 3D7 crude extract, LDH APAD/NBT absorbance; at 2 µM; hits give high values
experimental readout: inhibition (%)
Report only the number, with the unit % understood.

Some entries whose results are on file:
structure as smiles: COc1ccc2nccc([C@@H](O)CN3CCC(NC(=O)c4ccc5nc(-n6cccc6)sc5c4)CC3)c2c1
inhibition [%]: -2

structure as smiles: O=C(Cc1cccc(O)c1)Nc1ccc(-c2cccc(-c3nc4ccc(C(F)(F)F)cc4[nH]3)c2)cc1
inhibition [%]: 2

structure as smiles: Cc1cccc2[nH]c(-c3ccc(-c4ccc(NC(=O)C5CCN(C)CC5)cc4)cc3)nc12
inhibition [%]: 1

structure as smiles: Cc1nc2ccc3ccc(CNc4ccc5c(c4)CN([C@@H](CCC(=O)O)C(=O)O)C5=O)cc3c2c(=O)[nH]1
inhibition [%]: 2

Now look at this entry.
Which inhibition value belongs to `Oc1ccc2[nH]c(-c3cccs3)nc2c1CN1CCC(O)(c2ccccc2)CC1` ? -1

----------
# protocol: antimalarial activity against Dd2 strain (AID 2302);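 further: 0% = DMSO untreated growth and 100% = chloroquine plus artemisinin killed control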
# stated conditions: P. falciparum Dd2 in RBCs, LDH growth readout, 72 h; at 2 µM; hits give high values
Label t for high-side growth inhibition (at or above 30%) and f for low-side growth inhibition (below it).

As a guide, the following entries are already answered.
compound: CN1C(C)(C)CC(NC(=O)c2ccc(-c3cc4cc(Cl)c(Cl)cc4[nH]3)o2)CC1(C)C
category: t
--
compound: COc1ccc(-c2csc3nc(C)nc(Cl)c23)cc1OC
category: t
--
compound: CC(C)C(=O)n1ncc2c3c(N)nc(N)nc3ccc21
category: f
--
compound: C(=C(c1cccs1)c1cccs1)c1ccc(CNC2CCN(Cc3ccccc3)CC2)cc1
category: f
--
compound: CN1CCN(c2ccnc3ccc(NC(=O)Nc4ccc(-c5ccncc5)c(C(F)(F)F)c4)cc23)CC1
category: t

Reported growth inhibition reaches at least 30% for `CC1(C)N=C(N)N=C(N)N1c1cc(Cl)c(Cl)c(Cl)c1` ? t

Confirm if growth inhibition reported for the compound `Cc1cccc2[nH]c(-c3cccc(-c4ccc(NC(=O)C(C)(C)c5ccccn5)cc4)c3)nc12` is 30% or above. f

API: above_or_equal(metric=growth inhibition, cutoff=30%) for item CCN(CC)CCCC(C)Nc1c2ccccc2nc2c1ccc1ccccc12 (stereo not given) t

Decide: growth inhibition of `COc1cc(C(=O)NC2CC(C)(C)NC(C)(C)C2)ccc1-c1cc2cc(Cl)c(Cl)cc2[nH]1` >= 30%? t

Does growth inhibition meet or surpass 30% for `CN1CCN(c2ccc(Nc3ccnc4ccc(-c5ccccc5)cc34)cc2)CC1` ? t

----------
# target desc: Calcium-dependent protein kinase 1 (Plasmodium falciparum (isolate 3D7))
# protocol: PfCDPK1 kinase inhibitors, biochemical, TCAMS library (AID 1159585);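 further: inhibitors leave more ATP so luminescence rises with inhibition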
# stated conditions: recombinant PfCDPK1, Kinase-Glo ATP depletion luminescence
Potency and affinity values are given separately. Active and inactive are the calls of the source. Cut-off not given; nearly all actives show IC50 up to about 0.98 µM.
experimental readout: outcome

Reference set (8 entries):
compound: Cc1cc(C)cc(NC(=S)NCCCCN2CCN(c3cccc(Cl)c3)CC2)c1
outcome: inactive
--
compound: Cc1ccc2c(=O)cc(CCc3cccc(F)c3F)n(CC(=O)N(Cc3ccc(-c4ccc(C(F)(F)F)cc4)cc3)C3CCN(C(C)C)CC3)c2n1
outcome: inactive
--
compound: CCN(CC)CCNC(=O)c1ccc(NC(=O)c2cn(-c3ccccc3)nc2-c2cccs2)cc1
outcome: inactive
--
compound: COc1ccc(C=NNc2c3ccccc3nc3ccccc23)c2ccccc12
outcome: inactive
--
compound: CCC(CC)C(CC(=O)NC(C)(C)CCc1ccccc1OC)Nc1ccc(C#N)c2ccccc12 (stereo not given)
outcome: inactive
--
compound: CC1(C)N=C(N)N=C(N)N1c1cc(Cl)c(Cl)cc1Cl
outcome: inactive
--
compound: O=C(Nc1ccc(Cl)cc1)c1ccc(CN2CCCN(Cc3cccc(O)c3)CC2)cc1
outcome: inactive
--
compound: Cc1ccccc1C1CCN(C2CCC(NC(=O)/C=C/c3ccc(C#N)cc3)CC2)CC1 (stereo not given)
outcome: inactive

Using the record for CN1CCCC(CN2CCN(Cc3ccc(-c4ccc(-c5nc6ccccc6[nH]5)cc4)cc3)CC2)C1 (stereo not given) , report its outcome. inactive

So what does the record say about outcome for `Cc1cccc2[nH]c(-c3cccc(-c4cccc(NC(=O)Nc5ccsc5)c4)c3)nc12` ? inactive
